Tested on: PRP4
Reported Conditions: concentration: 1 μM, replicates: in singlicate; n = 1;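 note: KINOMEscan kinase panel screen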
Examples of compounds with documented %Inh follow.
# output: bare number, implied unit %

{"Compound": "NC(=O)c1sc(-n2cnc3ccccc32)cc1OCc1ccccc1F [GSK1024306]", "Unit": "%", "%Inh": 2}

Please give the measured %Inh for this compound: Cl.c1ccc(Cn2ncc3cc(Nc4ncnc5ccccc45)ccc32)cc1 [GW273749] 15

What value of measured %Inh is listed for Fc1cccc(COc2ccc(Nc3ncnc4sc(-c5ccc[nH]5)cc34)cc2Cl)c1 [GW707818] ? 25

Would you mind telling me what %Inh value was observed for CC(C)(C)c1ccc(-n2cnc3c(N)ncnc32)cc1 [SKF-97263] ? 7

Which %Inh reading was recorded for the compound Cc1ccc(O)cc1Nc1cc(C(F)(F)F)nc2ccc(-c3ccncc3)cc12 [GW630823] ? 0

Quick one: %Inh for Nc1nccc2scc(-c3ccc4c(c3)CCN4C(=O)Cc3cc(F)ccc3F)c12 [GSK2587663] ? 10

###

Tested on: RIPK1
Reported Conditions: concentration: 1 μM, replicates: in singlicate; n = 1
Value Type: %Inh (%)
// units = %; emit number, no label

Known %Inh results, listed for orientation:
{"Compound": "Fc1cccc(COc2ccc(Nc3ncnc4cc[nH]c34)cc2Cl)c1", "%Inh, %": 13}
{"Compound": "Nc1nccc2scc(-c3ccc4c(c3)CCN4C(=O)Cc3cc(F)ccc3F)c12 [GSK2587663]", "%Inh, %": 83}
{"Compound": "CNc1nccc(-c2c(-c3ccc(F)cc3)ncn2CCCN2CCOCC2)n1 [SB-222516]", "%Inh, %": 9}
{"Compound": "Fc1cccc(COc2ccc(Nc3ncnc4sc(-c5ccc[nH]5)cc34)cc2Cl)c1 [GW707818]", "%Inh, %": 34}
{"Compound": "COc1ccc(Nc2nccc(N3CCC(NC(=O)c4cccc(NC(C)=O)c4)C3)n2)cc1 (stereo not drawn) [GSK1379732]", "%Inh, %": 21}

Find the measured %Inh: item Cn1cc(-c2ccc3c(c2)CCN3C(=O)Cc2cccc(C(F)(F)F)c2)c2c(N)ncnc21 [GSK2606414] , target or system RIPK1. 75

Hello, I am looking for reported %Inh with RIPK1 for FC(F)(F)c1ccc(-c2cc(-c3c[nH]nc3-c3ccccn3)ccn2)cc1 [GW599550] . Could you help? 0

Form field - read-out: %Inh; system: RIPK1; submitted item: C[C@@H]1CCN(C(=O)CO)C[C@@H]1N(C)c1ncnc2[nH]ccc12 0

Notebook: pull reported %Inh for RIPK1, entry Cl.c1ccc(Cn2ccc3cc(Nc4ncnc5ccccc45)ccc32)cc1 [GW275568] 26

// lookup %Inh | system=RIPK1 | key= Cl.c1ccc(Cn2ncc3cc(Nc4ncnc5ccccc45)ccc32)cc1 [GW273749] 7

###

Test system: SRPK3
Reported Conditions: concentration: 1 μM, replicates: in singlicate; n = 1
This listing pairs compounds with measured %Inh.
Express it in %; write the number only.

Consider the worked cases shown below.
{"Cpd Smiles": "CS(=O)(=O)CCNCc1ccc(-c2ccc3ncnc(Nc4ccc(OCc5ccccc5)c(Cl)c4)c3c2)o1.Cl", "Target Or Test System": "SRPK3", "%Inh, %": 19}
{"Cpd Smiles": "Nc1nccc2scc(-c3ccc4c(c3)CCN4C(=O)Cc3cc(F)ccc3F)c12", "Target Or Test System": "SRPK3", "%Inh, %": 0}
{"Cpd Smiles": "Nc1nc(-c2ccccn2)c(-c2ccnc3ccccc23)s1", "Target Or Test System": "SRPK3", "%Inh, %": 0}
{"Cpd Smiles": "Fc1cccc(COc2ccc(Nc3ncnc4cc[nH]c34)cc2Cl)c1", "Target Or Test System": "SRPK3", "%Inh, %": 33}
{"Cpd Smiles": "C[C@@H]1CCN(C(=O)CO)C[C@@H]1N(C)c1ncnc2[nH]ccc12", "Target Or Test System": "SRPK3", "%Inh, %": 0}

Data request, read-out %Inh, for Fc1cccc(COc2ccc(Nc3ncnc4sc(-c5ccc[nH]5)cc34)cc2Cl)c1 0

Return reported %Inh; argument: Nc1nc(-c2cccnc2)c(-c2ccnc3ccccc23)s1 18

###

System: CSK
Reported Conditions: concentration: 1 μM, replicates: in singlicate; n = 1
Value Type: %Inh (%)
Number only, in %; omit the unit.

{"Cpd Smiles": "Fc1ccc(Nc2nccc(-c3c(-c4ccc(Cl)cc4)nn4ncccc34)n2)cc1F", "%Inh (%)": 28}

If you can, please state the reported %Inh value of Fc1cccc(COc2ccc(Nc3ncnc4sc(-c5ccc[nH]5)cc34)cc2Cl)c1 . 13

Which value of %Inh has been reported for CC(C)(C)c1ccc(-n2cnc3c(N)ncnc32)cc1 in the records? 0

Name the reported %Inh value associated with the compound O=C(Nc1n[nH]c2nc(-c3ccco3)c(Br)cc12)c1ccc(CN2CCCC2)cc1.O=C(O)[C@H](O)[C@@H](O)C(=O)O 0

Recorded %Inh for COC(=O)c1cccc(NC(=O)NCCNc2ccnc(Nc3ccc(F)cc3)n2)c1 , please? 0

Recorded %Inh for COc1ccc(NC(=O)c2ccc(-c3cc(-c4nnc(C)o4)ccc3C)cc2)cc1 , please? 0

Item under review: Cc1ccc(C)c(NC(=O)NCCNc2ccnc(Nc3ccc(F)cc3)n2)c1 . Reported %Inh? 100

Entry Cl.Cn1ccc(-c2cccc(Nc3ccnc4cc(-c5nccs5)ccc34)c2)n1 : reported %Inh = ? 0

###

System: LZK
Construct: gene MAP3K13
Reported Conditions: concentration: 1 μM, replicates: in singlicate; n = 1
Listing of entries alongside the reported %Inh.

Sample answers from the record:
{"Compound": "Nc1nc(-c2cccnc2)c(-c2ccnc3ccccc23)s1 [GW684083]", "Target Or Test System": "LZK", "%Inh": "14%"}
{"Compound": "Cl.O=S(=O)(c1cccc(F)c1)c1ccc(Nc2ncnc3cc(Br)sc23)cc1Cl [GSK306886]", "Target Or Test System": "LZK", "%Inh": "0%"}
{"Compound": "CN1CCC(n2cnc(-c3ccc(F)cc3)c2-c2ccnc(NC3CCNCC3)n2)CC1 [SB-229482]", "Target Or Test System": "LZK", "%Inh": "0%"}

Fill in: %Inh of Cc1cccc(-c2nc(Nc3ccc4[nH]nnc4c3)c3ccccc3n2)n1 [GW867587] is ___ 0%

// %Inh lookup, key: O=C(Nc1ccccc1F)NC1CCN(c2ccnc(Nc3ccc(F)cc3)n2)C1 (stereo not drawn) [GSK1379722] 23%

Request the reported %Inh associated with Cn1ccc2ncnc(Oc3ccc(NC(=O)Nc4cccnc4)c(Cl)c3)c21 0%

Could you tell me which %Inh is on file for CSc1ccc(NC2=C(c3ccccc3Cl)C(=O)NC2=O)cc1 [SB-342411] ? 0%

Form field: reported %Inh of CNc1nccc(-c2c(-c3ccc(F)cc3)ncn2C2CCN(C)CC2)n1 [SB-222903] 0%

If you can, please state the reported %Inh value of Oc1ccc2ncnc(Nc3ccc(OCc4ccccc4)cc3)c2c1 [GI262866] . 0%

###

System: GRK3
Construct: gene ADRBK2
Reported Conditions: concentration: 1 μM, replicates: in singlicate; n = 1
%Inh values by entry
Numbers only; they are read as %.

Please give the measured %Inh for this compound: COc1cc2c(Nc3cccc(NC(=O)c4ccccc4)c3)ncnc2cc1OCCCN1CCOCC1 0

# %Inh lookup, item CN1CCC(n2cnc(-c3ccc(F)cc3)c2-c2ccnc(NC3CCNCC3)n2)CC1 1

Look at this compound and give its reported %Inh. Cl.c1ccc(Cn2ccc3cc(Nc4ncnc5ccccc45)ccc32)cc1 0

# %Inh lookup, item CNc1nccc(-c2c(-c3ccc(F)cc3)ncn2CCCN2CCOCC2)n1 23

###

System: CDK11
Construct: gene CDK19
Reported Conditions: concentration: 1 μM, replicates: in singlicate; n = 1
Value Type: %Inh

Solved cases below.
{"Molecule": "CCc1nc(-c2cccc(N(C)S(=O)(=O)c3ccccc3)c2)c(-c2ccnc(Nc3ccc(N4CCN(C(C)=O)CC4)nc3)n2)s1 [GSK1645895]", "%Inh": "6%"}
{"Molecule": "Fc1ccc(-c2ncn(CCCNCc3ccccc3)c2-c2ccncc2)cc1", "%Inh": "0%"}
{"Molecule": "Clc1cccc(-c2nc(Nc3ccncc3)c3ccccc3n2)c1 [GW873004]", "%Inh": "2%"}
{"Molecule": "CC(=O)Nc1n[nH]c2ncc(-c3ccccc3)cc12 [SB-548492]", "%Inh": "0%"}
{"Molecule": "Nc1nc(-c2ccc3c(N)n[nH]c3c2)cc(N2CCC[C@@H](C(=O)Nc3ccccc3)C2)n1.O=C(O)C(F)(F)F.O=C(O)C(F)(F)F [GSK2288359]", "%Inh": "0%"}
{"Molecule": "Oc1ccc2ncnc(Nc3ccc(OCc4ccccc4)cc3)c2c1 [GI262866]", "%Inh": "36%"}
{"Molecule": "C[C@H]1CC[C@@H](C(=O)Nc2ccccc2)CN1c1cc(-c2ccc3c(N)n[nH]c3c2)nc(N)n1 [GSK2283293]", "%Inh": "0%"}
{"Molecule": "COC(=O)c1c(-c2ccccc2)c2cc(Cl)ccc2c(=O)n1Cc1ccc(S(C)(=O)=O)cc1", "%Inh": "0%"}

Could you share what %Inh was measured for CCn1c(-c2ccncc2)nc2cnccc21 [SB-735216] , tested on CDK11? 18%

The origin of these recorded values is paper PMC5540273.
